SYSTEM NAME: HIV Env of isolate 0330.v4.c3 (clade A) (HIV)
EXPERIMENT: cell-based or functional assay
Parameter: IC80 (µg/ml) with constrains. Scope: all listed entries.
ENDPOINT LABEL: IC80 (µg/ml) with constrains

[[record]]
binder = "ePGDM9 (antibody, V domains shown) VH: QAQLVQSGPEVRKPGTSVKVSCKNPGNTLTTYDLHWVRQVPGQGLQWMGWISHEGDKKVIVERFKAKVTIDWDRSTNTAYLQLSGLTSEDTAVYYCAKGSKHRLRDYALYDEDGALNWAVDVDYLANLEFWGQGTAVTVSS VL: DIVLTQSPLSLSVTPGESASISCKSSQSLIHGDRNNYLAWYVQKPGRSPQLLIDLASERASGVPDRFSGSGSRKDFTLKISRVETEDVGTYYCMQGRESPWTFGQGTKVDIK"
measurement = "0.01 µg/mL"

[[record]]
binder = "ePGDM5 (antibody, V domains shown) VH: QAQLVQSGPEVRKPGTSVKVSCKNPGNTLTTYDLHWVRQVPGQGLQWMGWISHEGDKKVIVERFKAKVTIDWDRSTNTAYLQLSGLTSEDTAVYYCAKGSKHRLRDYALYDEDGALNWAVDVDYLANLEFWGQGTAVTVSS VL: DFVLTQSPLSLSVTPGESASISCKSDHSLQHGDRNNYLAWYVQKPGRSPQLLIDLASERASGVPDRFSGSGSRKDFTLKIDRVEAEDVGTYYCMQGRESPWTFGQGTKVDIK"
measurement = "0.01 µg/mL"

[[record]]
binder = "ePGDM13 (antibody, V domains shown) VH: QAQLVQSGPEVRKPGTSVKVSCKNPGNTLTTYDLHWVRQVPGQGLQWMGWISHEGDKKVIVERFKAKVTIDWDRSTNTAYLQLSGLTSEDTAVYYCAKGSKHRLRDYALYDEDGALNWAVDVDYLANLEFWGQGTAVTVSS VL: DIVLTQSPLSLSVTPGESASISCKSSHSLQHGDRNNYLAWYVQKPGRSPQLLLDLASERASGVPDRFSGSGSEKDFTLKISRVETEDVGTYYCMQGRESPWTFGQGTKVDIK"
measurement = "0.008 µg/mL"

[[record]]
binder = "PGDM1400 (antibody, V domains shown) VH: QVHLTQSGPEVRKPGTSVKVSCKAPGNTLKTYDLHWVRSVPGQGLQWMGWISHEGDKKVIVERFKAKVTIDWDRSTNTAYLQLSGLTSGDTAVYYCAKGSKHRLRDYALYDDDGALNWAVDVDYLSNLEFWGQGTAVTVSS VL: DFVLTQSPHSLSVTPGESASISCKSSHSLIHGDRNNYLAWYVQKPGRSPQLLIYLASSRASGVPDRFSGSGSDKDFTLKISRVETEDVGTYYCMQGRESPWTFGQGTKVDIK"
measurement = "0.016 µg/mL"

